Below, each of the compounds is paired with its reported pIC50 value.
# target_or_system: G9a (Homo sapiens)
# Sequence (Q96KQ7 1-1210): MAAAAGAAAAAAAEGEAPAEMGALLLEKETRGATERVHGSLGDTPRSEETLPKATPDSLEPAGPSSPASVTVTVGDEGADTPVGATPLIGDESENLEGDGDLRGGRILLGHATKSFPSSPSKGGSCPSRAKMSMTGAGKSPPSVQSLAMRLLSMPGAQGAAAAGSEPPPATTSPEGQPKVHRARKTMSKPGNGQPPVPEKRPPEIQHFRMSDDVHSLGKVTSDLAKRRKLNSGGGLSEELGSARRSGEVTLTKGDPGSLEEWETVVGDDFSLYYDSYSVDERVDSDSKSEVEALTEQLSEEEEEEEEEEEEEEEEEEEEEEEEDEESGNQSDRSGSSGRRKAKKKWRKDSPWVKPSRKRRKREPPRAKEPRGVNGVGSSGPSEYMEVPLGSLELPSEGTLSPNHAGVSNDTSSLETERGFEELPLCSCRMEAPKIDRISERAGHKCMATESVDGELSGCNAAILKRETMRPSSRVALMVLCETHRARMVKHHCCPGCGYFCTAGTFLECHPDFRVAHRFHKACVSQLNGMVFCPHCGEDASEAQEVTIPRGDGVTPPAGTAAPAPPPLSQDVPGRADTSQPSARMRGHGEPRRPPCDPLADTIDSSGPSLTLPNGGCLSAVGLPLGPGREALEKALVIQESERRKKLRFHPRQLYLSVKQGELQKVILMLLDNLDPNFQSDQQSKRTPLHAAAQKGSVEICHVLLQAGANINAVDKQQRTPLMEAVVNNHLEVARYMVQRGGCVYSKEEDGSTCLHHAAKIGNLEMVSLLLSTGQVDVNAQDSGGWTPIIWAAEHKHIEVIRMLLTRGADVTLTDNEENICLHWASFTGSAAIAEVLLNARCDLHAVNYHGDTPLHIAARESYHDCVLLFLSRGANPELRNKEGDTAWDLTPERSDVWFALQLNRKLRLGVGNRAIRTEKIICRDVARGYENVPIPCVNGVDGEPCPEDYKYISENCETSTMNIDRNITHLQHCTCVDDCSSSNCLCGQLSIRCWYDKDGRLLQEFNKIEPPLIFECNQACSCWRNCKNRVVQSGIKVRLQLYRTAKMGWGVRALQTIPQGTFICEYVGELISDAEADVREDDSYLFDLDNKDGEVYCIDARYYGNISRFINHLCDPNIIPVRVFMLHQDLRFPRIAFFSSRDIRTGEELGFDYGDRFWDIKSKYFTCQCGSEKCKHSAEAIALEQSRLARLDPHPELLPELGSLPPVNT
# test_protocol: HKMT-inhibitor (HMT) assay, G9a
# run_parameters: recombinant HKMT, [3H]SAM, histone octamers or oligonucleosomes, average of duplicate
pIC50: −log10 of the molar value.

[[record]]
compound = "Cc1cc(O)c(C(C)C)cc1C1(c2cc(C(C)C)c(O)cc2C)OC(=O)c2ccccc21 [Thymolphthalein, thymolphthalein]"
measured_endpoint = "pIC50"
recorded_value = "< 2.84"


Given Nc1cc(S(=O)(=O)O)cc2cc(S(=O)(=O)O)cc(O)c12 [H-acid] , respond with its pIC50. < 3.30
